Consider the following binders; for each one, report its % of binding vs wild-type fragment 15-37.
Biological target: T1, EGFRvIII amino acid residues 15 to 37 with Glu29 to Ala mutation (human)
T1 construct: mutation is already in the entry
T1 peptide: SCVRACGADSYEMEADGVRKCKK
Assay: yeast display flow cytometry, Myc-normalized;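 further: Anti-EGFRvIII monoclonal antibodies tested by flow cytometry on yeast displaying alanine-substituted fragments, two-color indirect fluorescence with anti-Myc signal tracking fusion protein expression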
One number for each entry, in %.

Field: example entries. Status: answers known.
F263-4B3 (antibody, V domains shown, Mouse hybridoma mAb) VH: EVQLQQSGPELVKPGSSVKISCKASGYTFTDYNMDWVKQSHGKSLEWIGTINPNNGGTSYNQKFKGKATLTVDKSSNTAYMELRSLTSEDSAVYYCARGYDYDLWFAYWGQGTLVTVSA VL: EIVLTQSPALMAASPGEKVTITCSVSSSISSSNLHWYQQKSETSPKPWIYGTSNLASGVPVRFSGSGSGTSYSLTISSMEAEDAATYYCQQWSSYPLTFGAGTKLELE = 71.6
F263-5D8 (antibody, V domains shown, Mouse hybridoma mAb) VH: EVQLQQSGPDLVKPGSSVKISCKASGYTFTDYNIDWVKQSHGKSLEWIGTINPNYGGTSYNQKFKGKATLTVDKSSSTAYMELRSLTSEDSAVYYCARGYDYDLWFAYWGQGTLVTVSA VL: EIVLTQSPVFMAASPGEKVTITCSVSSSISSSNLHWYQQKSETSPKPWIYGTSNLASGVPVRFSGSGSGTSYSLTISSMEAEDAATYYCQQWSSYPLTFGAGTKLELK = 77.3
F263-4E11 (antibody, V domains shown, Mouse hybridoma mAb) VH: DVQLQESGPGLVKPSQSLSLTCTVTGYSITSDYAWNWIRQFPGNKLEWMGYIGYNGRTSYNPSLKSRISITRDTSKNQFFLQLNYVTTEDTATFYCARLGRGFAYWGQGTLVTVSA VL: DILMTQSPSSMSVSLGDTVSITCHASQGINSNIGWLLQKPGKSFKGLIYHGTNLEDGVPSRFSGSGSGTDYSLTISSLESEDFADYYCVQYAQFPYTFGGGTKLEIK = 75.3

Continue with the next binder.
Problem: What value of % of binding vs wild-type fragment 15-37 has been recorded for this entry: F265-9C9 (antibody, V domains shown, Mouse hybridoma mAb) VH: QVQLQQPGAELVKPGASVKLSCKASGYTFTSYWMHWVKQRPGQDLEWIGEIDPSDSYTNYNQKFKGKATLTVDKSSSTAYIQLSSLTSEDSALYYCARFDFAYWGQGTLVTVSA VL: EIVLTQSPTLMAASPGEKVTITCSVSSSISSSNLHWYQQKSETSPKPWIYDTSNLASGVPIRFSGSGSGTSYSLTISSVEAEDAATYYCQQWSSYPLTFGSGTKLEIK
Result: 138

Origin of values: patent US20220193132A1
